Origin of measurements: PubChem BioAssay (NCI)

tested on: LOX IMVI melanoma; assay: NCI-60 one-dose screen, 48 h; conditions: 10 µM unless noted
The panel holds about 83,000 compounds, 20% with a hit somewhere; the sample as a whole holds those more often. Calls of active or inactive are those of the source. The calls were made as follows: active = growth percent below 10; inactive = the rest.
Outcome codes: active, inactive

Molecule | Test Target | Class Assignment
Cc1c(C)c2c(c(C)c1OC(=O)CCC(=O)[O-])CCC(C)(CCCCCCCCCCC[P+](c1ccccc1)(c1ccccc1)c1ccccc1)O2 (centres undefined) | LOX IMVI melanoma | active
CN1CCN(Cc2ccc(NC(=O)c3cncc(C#Cc4c(N)ncc5ccccc45)c3)cc2C(F)(F)F)CC1 | LOX IMVI melanoma | active
CCNc1nc(-c2ccc(Cl)c(OC)c2)c(-c2ccnc(NCCNS(=O)(=O)c3ccc(Cl)cc3)n2)s1 | LOX IMVI melanoma | inactive
COc1cc(OCc2cccc(-c3ccccc3)c2C)cc(OC)c1CN1CCCCC1C(=O)NCCOCCOCCN (centres undefined) | LOX IMVI melanoma | active
CN(C)C(=S)NN=C(c1ccccn1)c1ccccn1 | LOX IMVI melanoma | active
CC(=O)c1ccc(Nc2nccc(-c3ccc(Cl)cc3)n2)cc1 | LOX IMVI melanoma | inactive
CCOC(=O)c1cnc2sc(-c3ccc(OC)cc3)nc2c1Cl | LOX IMVI melanoma | inactive
O=C(Nc1ncc(Cc2ccccc2)s1)c1ccc2c(c1)OCCO2 | LOX IMVI melanoma | inactive
O=C1/C(=C/c2ccc(-c3ccc(Cl)cc3)o2)SC(=S)N1CCc1ccc(O)cc1 | LOX IMVI melanoma | inactive
